# tested-target: muscarinic receptors
# Type: binding, Hooded Lister rats
# cond: rat cerebral cortex; 0.27 nM 3H-QNB; 37° C., 30 min; E3 as hydrochloride salt, all others as oxalate salts
property: log10 IC50 (log10 of the value in nM)
Reminder: these figures are log10 of reported IC50, in nM before transformation.

# compound, reading
measured = [
    ("Cc1nncc(C23CCCN(CC2)C3)n1 (racemic) [Example E1]", 3.26),
    ("Cc1nncc(C23CCN(CC2)C3)n1 [Example E3]", 3.64),
    ("CCc1nncc([C@@H]2CN3CC[C@@H]2C3)n1 (relative stereo) [Example E10]", 2.38),
    ("Cc1nncc(C2CN3CCC2CC3)n1 (racemic) [Example E7]", 2.24),
    ("Nc1nncc(C23CCCN(CC2)C3)n1 (racemic) [Example E2]", 3.05),
    ("COc1nncc(C23CCN(CC2)C3)n1 [Example E5]", 4.15),
    ("Nc1nncc(C23CCN(CC2)C3)n1 [Example E4]", 3.17),
    ("Cc1nncc([C@@H]2CN3CC[C@@H]2C3)n1 (relative stereo) [Example E8a]", 2.41),
    ("Nc1nncc(C2CN3CCC2CC3)n1 (racemic) [Example E6]", 3.37),
]

The record that follows has no log10 IC50 shown yet.
Can you share its log10 IC50? I mean this compound: Nc1nncc(C2CN3CCC2C3)n1 (racemic) [E9a & E9b]
2.51
